MEASUREMENT SETUP: in acetone, 303.15 K
METRIC NAME: solubility (mole fraction)
Could you respond with only the numeric value?

## Input Query (compound): NC(=O)N1c2ccccc2CC(=O)c2ccccc21 ; field requested: solubility (mole fraction)
## Output 0.00154

---

MEASUREMENT SETUP: in isopropanol, 308.15 K
METRIC NAME: solubility (mole fraction)

## Input Query (molecule): NC(=O)N1c2ccccc2CC(=O)c2ccccc21 ; field requested: solubility (mole fraction)
## Output 0.000413

---

MEASUREMENT SETUP: in n-butanol, 288.15 K
METRIC NAME: solubility (mole fraction)
Could you respond with only the numeric value?

## Input Query (compound): NC(=O)N1c2ccccc2CC(=O)c2ccccc21 ; field requested: solubility (mole fraction)
## Output 0.000251
